Target: CFTR (Homo sapiens, UniProt P13569, DEL508-508)
Construct: endogenous in cells; host or cells: primary human bronchial epithelial cells from CF subjects (F508del/MF-HBE), differentiated at air-liquid interface
Sequence (P13569 with tags, fused parts or gaps DEL508-508): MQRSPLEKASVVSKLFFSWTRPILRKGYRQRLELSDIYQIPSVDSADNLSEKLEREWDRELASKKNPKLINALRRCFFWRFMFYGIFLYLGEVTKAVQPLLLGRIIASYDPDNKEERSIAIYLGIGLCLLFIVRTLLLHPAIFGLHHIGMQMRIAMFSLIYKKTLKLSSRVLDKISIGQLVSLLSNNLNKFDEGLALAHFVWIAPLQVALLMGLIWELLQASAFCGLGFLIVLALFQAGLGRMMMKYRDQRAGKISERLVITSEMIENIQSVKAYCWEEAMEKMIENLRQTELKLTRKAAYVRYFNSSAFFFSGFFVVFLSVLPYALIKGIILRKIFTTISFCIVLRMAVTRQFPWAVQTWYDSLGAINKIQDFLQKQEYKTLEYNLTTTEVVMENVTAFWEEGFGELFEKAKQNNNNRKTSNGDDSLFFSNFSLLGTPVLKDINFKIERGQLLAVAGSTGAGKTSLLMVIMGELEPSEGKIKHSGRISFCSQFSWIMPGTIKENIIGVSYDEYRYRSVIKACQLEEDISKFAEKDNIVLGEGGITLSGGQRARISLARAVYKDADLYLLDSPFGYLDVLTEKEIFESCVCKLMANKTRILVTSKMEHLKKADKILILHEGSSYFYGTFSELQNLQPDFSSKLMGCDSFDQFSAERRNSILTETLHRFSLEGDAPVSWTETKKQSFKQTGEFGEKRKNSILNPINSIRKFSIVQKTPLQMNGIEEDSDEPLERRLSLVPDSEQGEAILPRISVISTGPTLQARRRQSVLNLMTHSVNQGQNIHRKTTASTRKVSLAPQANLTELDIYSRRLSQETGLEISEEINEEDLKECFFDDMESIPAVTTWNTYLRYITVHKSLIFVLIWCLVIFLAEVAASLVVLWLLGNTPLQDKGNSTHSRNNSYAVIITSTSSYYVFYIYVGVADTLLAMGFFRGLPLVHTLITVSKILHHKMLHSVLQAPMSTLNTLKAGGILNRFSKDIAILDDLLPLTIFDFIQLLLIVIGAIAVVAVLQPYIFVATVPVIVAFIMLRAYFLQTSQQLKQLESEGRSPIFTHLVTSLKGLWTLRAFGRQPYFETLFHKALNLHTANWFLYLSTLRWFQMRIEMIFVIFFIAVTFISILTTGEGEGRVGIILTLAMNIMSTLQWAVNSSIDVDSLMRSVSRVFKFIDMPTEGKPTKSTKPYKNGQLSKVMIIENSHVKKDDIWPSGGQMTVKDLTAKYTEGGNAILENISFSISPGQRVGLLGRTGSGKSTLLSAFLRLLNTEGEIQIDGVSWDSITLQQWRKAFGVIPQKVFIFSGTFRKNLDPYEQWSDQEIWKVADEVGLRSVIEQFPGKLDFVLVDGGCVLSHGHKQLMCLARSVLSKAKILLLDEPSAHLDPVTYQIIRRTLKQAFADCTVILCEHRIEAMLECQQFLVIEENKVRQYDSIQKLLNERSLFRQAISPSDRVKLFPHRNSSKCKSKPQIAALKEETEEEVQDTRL
Test: HBE assay: Ussing chamber assay of CFTR-mediated short-circuit currents
Assay type: cell-based
Conditions: HBE EC50 (μM), Table 12
Measured EC50, listed per entry for reference.

>>> assay_value("Cc1cccc(C)c1-c1cc2nc(n1)NS(=O)(=O)c1cccc(c1)C(=O)N(Cc1ncc(N3C4CCC3COC4)cn1)[C@H](CC(C)(C)C)CO2 [Compound 563]")
"< 1 µM"

### Prompt // lookup EC50 for Cc1cccc(C)c1-c1cc2nc(n1)NS(=O)(=O)c1cccc(c1)C(=O)N(Cc1ncc(N3C4CCC3CC4)cn1)[C@H](CC(C)(C)C)CO2 [Compound 554]
### Response < 1 µM

---

Measured Emax, listed per entry.
Target: CFTR (Homo sapiens, UniProt P13569, DEL508-508)
Construct: endogenous in cells; host or cells: primary human bronchial epithelial cells from CF subjects (F508del/MF-HBE), differentiated at air-liquid interface
Test: HBE assay: Ussing chamber assay of CFTR-mediated short-circuit currents
Assay type: cell-based
Conditions: Table 13; read-out: HBE Max Activity (%)

>>> assay_value("Cc1cccc(C)c1-c1cc2nc(n1)NS(=O)(=O)c1cccc(c1)C(=O)N(Cc1ncc(N3CC4(CCOCC4)C3)cn1)[C@H](CC(C)(C)C)CO2 [Compound 866]")
"> 60%"
>>> assay_value("Cc1cccc(C)c1-c1cc2nc(n1)NS(=O)(=O)c1cccc(c1)C(=O)N(Cc1cccc(N3CCC34CCOC4)n1)[C@H](CC(C)(C)C)CO2 (stereo partly drawn) [Compound 532]")
"> 60%"

Let us examine a further case.
### Prompt Data request, read-out Emax, for Cc1cccc(C)c1-c1cc2nc(n1)NS(=O)(=O)c1cccc(c1)C(=O)N(Cc1nc3c(ccn3C(C)C)cc1F)[C@H](CC(C)(C)C)CO2 [Compound 1124]
### Response > 60%

---

Each entry below lists one item and its recorded Emax value.
Target: F508del (Homo sapiens, UniProt P13569, DEL508-508)
Construct: expressed in transfected cells
Sequence (P13569 with tags, fused parts or gaps DEL508-508): as above
Assay: 3T3 assay: membrane potential optical assay for F508del correction
Assay type: cell-based
Details: NIH3T3; Table 7; F508del NIH 3T3 cells; compared to lumacaftor in combination with acutely added 300 nM Ivacaftor; read-out: 3T3 Max Activity

Examples with answers:
>>> assay_value("Cc1cccc(C)c1-c1cc2nc(n1)NS(=O)(=O)c1cccc(c1)C(=O)N(Cc1ccc(N3CCCCC3)nc1)[C@H](CC(C)C)CO2")
"> 60%"
>>> assay_value("Cc1cccc(C)c1-c1cc2nc(n1)NS(=O)(=O)c1cccc(c1)CN(CCCC1(C(F)(F)F)CC1)[C@H](CC(C)C)CO2")
"> 60%"

### Prompt So what does the record say about Emax for `CC(=O)N1CCC(CCN2C(=O)c3cccc(c3)S(=O)(=O)Nc3nc(cc(-c4c(C)cccc4C)n3)OC[C@H]2CC(C)C)CC1` ?
### Response > 60%

---

Molecular target: CFTR (Homo sapiens, UniProt P13569, DEL508-508)
Construct: endogenous in cells; host or cells: primary human bronchial epithelial cells from CF subjects (F508del/MF-HBE), differentiated at air-liquid interface
Experiment: HBE assay: Ussing chamber assay of CFTR-mediated short-circuit currents
Format: cell-based
Settings: HBE EC50 (μM), HBE assay
compounds and their reported EC50

// below: answered compounds
>>> assay_value("Cc1cccc(C)c1-c1cc2nc(n1)NS(=O)(=O)c1cccc(c1)C(=O)N(Cc1cncc(N3CCC[C@H]3C3CC3)n1)[C@H](CC1CC1)CO2")
"< 1 µM"
>>> assay_value("Cc1cccc(C)c1-c1cc2nc(n1)NS(=O)(=O)c1cccc(c1)C(=O)N(Cc1cncc(N3CCC[C@H]3C3CC3)n1)[C@H](CC(C)(C)C)CO2")
"< 1 µM"

### Prompt EC50 for `Cc1cccc(C)c1-c1cc2nc(n1)NS(=O)(=O)c1cccc(c1)C(=O)N(Cc1cccc(N3CCC[C@H]3C3CC3)n1)[C@H](CC(C)(C)C)CO2` ?
### Response < 1 µM

---

pEC50 values by entry
Molecular target: CFTR (Homo sapiens, UniProt P13569, DEL508-508)
Construct: endogenous in cells; host or cells: primary human bronchial epithelial cells from CF subjects (F508del/MF-HBE), differentiated at air-liquid interface
Experiment: HBE assay: Ussing chamber assay of CFTR-mediated short-circuit currents
Format: cell-based
Conditions: Table 11; read-out: HBE EC50
Description: 1. Ussing Chamber Assay of CFTR-Mediated Short-Circuit Currents […] To isolate the CFTR-mediated short-circuit (ISC) current, F508del/MF-HBE grown on Costar® Snapwell™ cell culture inserts were mounted in an Ussing chamber and the transepithelial ISC was measured under voltage-clamp recording conditions (Vhold=0 mV) at 37° C. […] The CFTR-mediated ISC (μA/cm^2) for each condition was determined from the peak forskolin response to the steady-state current following inhibition. […]
pEC50: −log10 of the molar value.

Answered examples (5):
>>> assay_value("Cc1cccc(C)c1-c1cc2nc(n1)NS(=O)(=O)c1cccc(c1)C(=O)N(Cc1ncc(N(C(C)C)C(C)C)cn1)[C@H](CC(C)(C)C)CO2 [Compound 629]")
"4.52 to 5.52"
>>> assay_value("Cc1cccc(C)c1-c1cc2nc(n1)NS(=O)(=O)c1cccc(c1)C(=O)N(Cc1cccc(N3[C@H](C)CC[C@@H]3C)n1)[C@H](CC(C)(C)C)CO2 [Compound 709]")
"> 6.00"
>>> assay_value("COCCN1CCCC(CN2C(=O)c3cccc(c3)S(=O)(=O)Nc3nc(cc(-c4c(C)cccc4C)n3)OC[C@H]2CC(C)(C)C)C1=O (stereo partly drawn) [Compound 641]")
"5.52 to 6.00"
>>> assay_value("Cc1cccc(C)c1-c1cc2nc(n1)NS(=O)(=O)c1cccc(c1)C(=O)N(Cc1cnc(OC(C)C)cn1)[C@H](CC(C)(C)C)CO2 [Compound 897]")
"> 6.00"
>>> assay_value("CCc1cccc(CN2C(=O)c3cccc(c3)S(=O)(=O)Nc3nc(cc(-c4c(C)cccc4C)n3)OC[C@H]2CC(C)(C)C)n1 [Compound 730]")
"> 6.00"

### Prompt Given Cc1cccc(C)c1-c1cc2nc(n1)NS(=O)(=O)c1cccc(c1)C(=O)N(Cc1ccnc(N(C)CC(C)(C)C)n1)[C@H](CC(C)(C)C)CO2 [Compound 601] , state its recorded pEC50.
### Response > 6.00

---

Each entry below lists one item and its recorded EC50 value.
Target: CFTR (Homo sapiens, UniProt P13569)
Sequence (P13569 with tags, fused parts or gaps DEL508-508): as above
Experiment: Membrane potential dye, Enteroid Assay A
Type: cell-based
Settings: Table 7; human enteroid cells, 18-24 hours; acute 10 μM forskolin and 300 nM ivacaftor; read-out: Ent. A EC50

Known results for molecules:
>>> assay_value("Cc1cccc(C)c1-c1cc2nc(n1)NS(=O)(=O)c1cccc(c1)C(=O)N(C)C[C@@H](c1ccc(C(C)(C)C)cn1)O2 (single isomer, unassigned) [Compound 102]")
"1 to 3 µM"
>>> assay_value("Cc1cccc(C)c1-c1cc2nc(n1)NS(=O)(=O)c1cccc(c1)C(=O)N(Cc1ccc(N3CCC(C)(O)CC3)nc1)[C@H](CC(C)C)CO2 [Compound 939]")
"< 1 µM"
>>> assay_value("Cc1cccc(C)c1-c1cc2nc(n1)NS(=O)(=O)c1cccc(c1)C(=O)N(Cc1ccc(N3C[C@@H](O)[C@@H](O)C3)nc1)[C@H](CC(C)C)CO2 [Compound 953]")
"< 1 µM"

### Prompt Recorded EC50 of Cc1cccc(C)c1-c1cc2nc(n1)NS(=O)(=O)c1cccc(c1)C(=O)N(Cc1ccc(NCCO)nc1)[C@H](CC(C)C)CO2 [Compound 946] , please.
### Response < 1 µM

### Prompt Record: Cc1cccc(C)c1-c1cc2nc(n1)NS(=O)(=O)c1cccc(c1)C(=O)N(Cc1ccc(N3CCN(C)CC3)nc1)[C@H](CC1(C(F)(F)F)CC1)CO2 [Compound 684]
### Response < 1 µM

### Prompt Do the same for Cc1cccc(C)c1-c1cc2nc(n1)NS(=O)(=O)c1cccc(c1)CN(CC1CCOCC1)[C@H](CC(C)C)CO2 [Compound 1041] please
### Response < 1 µM

### Prompt Again, but for Cc1cccc(C)c1-c1cc2nc(n1)NS(=O)(=O)c1cccc(c1)C(=O)N(C)C[C@@H](c1cccc(C(C)(C)C)c1)O2 (single isomer, unassigned) [Compound 17]
### Response < 1 µM

### Prompt Same thing, different molecule: Cc1cccc(C)c1-c1cc2nc(n1)NS(=O)(=O)c1cccc(c1)C(=O)N(CCC1CCOCC1)[C@H](CC(F)(F)F)CO2 [Compound 983]
### Response < 1 µM

### Prompt Now consider COCC1CCN(c2ccc(CN3C(=O)c4cccc(c4)S(=O)(=O)Nc4nc(cc(-c5c(C)cccc5C)n4)OC[C@H]3CC(C)C)cn2)CC1 [Compound 970] .
### Response < 1 µM

### Prompt Try this molecule too: Cc1cccc(C)c1-c1cc2nc(n1)NS(=O)(=O)c1cccc(c1)C(=O)N(CCC(C1CC1)C1CC1)[C@H](CC(C)C)CO2 [Compound 413]
### Response < 1 µM

### Prompt Now give it for CCOc1cc(CN2Cc3cccc(c3)S(=O)(=O)Nc3nc(cc(-c4c(C)cccc4C)n3)OC[C@H]2CC(C)C)ccc1OC [Compound 1038] too.
### Response < 1 µM

### Prompt # repeat for Cc1cccc(C)c1-c1cc2nc(n1)NS(=O)(=O)c1cccc(c1)C(=O)N(Cc1ccc(C(=O)O)nc1)[C@H](CC(C)C)CO2 [Compound 94]
### Response 1 to 3 µM
